Measured values drawn from ChEMBL document CHEMBL2311311 for this set.

Tested on: Staphylococcus aureus
Test: Antimicrobial activity against Staphylococcus aureus ATCC 25923 by broth microdilution method
Type: functional
As shown below, each of these molecules has a reported MIC value.
observationType: MIC (µM)

>  <molecule>
O=C(O)c1cn(C2CC2)c2cc(N3CCN(Cn4nc(-c5cccc(Cl)c5)n(-c5cccc(I)c5)c4=S)CC3)c(F)cc2c1=O

>  <targetOrSystem>
Staphylococcus aureus

>  <observationType>
MIC

>  <quantitativeResult>
1.29

$$$$
>  <molecule>
O=C(O)c1cn(C2CC2)c2cc(N3CCN(Cn4nc(-c5cccc(O)c5)n(-c5cccc(I)c5)c4=S)CC3)c(F)cc2c1=O

>  <targetOrSystem>
Staphylococcus aureus

>  <observationType>
MIC

>  <quantitativeResult>
0.66

$$$$
>  <molecule>
CCCc1nn(CN2CCN(c3cc4c(cc3F)c(=O)c(C(=O)O)cn4C3CC3)CC2)c(=S)n1-c1cccc(I)c1

>  <targetOrSystem>
Staphylococcus aureus

>  <observationType>
MIC

>  <quantitativeResult>
90.8

$$$$
>  <molecule>
O=C(O)c1cn(C2CC2)c2cc(N3CCNCC3)c(F)cc2c1=O [CIPROFLOXACIN]

>  <targetOrSystem>
Staphylococcus aureus

>  <observationType>
MIC

>  <quantitativeResult>
2.96

$$$$
>  <molecule>
O=C(O)c1cn(C2CC2)c2cc(N3CCN(Cn4nc(-c5cccc(Cl)c5)n(-c5ccc(F)cc5F)c4=S)CC3)c(F)cc2c1=O

>  <targetOrSystem>
Staphylococcus aureus

>  <observationType>
MIC

>  <quantitativeResult>
0.73

$$$$
